Test system: HepG2
Assay: cytotoxicity call (relative viability < 0.9)
Details: 10 µM
In all, about 39,000 compounds went through this assay and about 3,300 (8.5%) were called active. Many of the other results were omitted from the sample, so actives are more common in it than they were.
outcome.measure: cytotoxicity call

[
  {
    "compound": "C[C@H]1CN([C@@H](C)CO)C(=O)c2cccc(NC(=O)c3ccncc3)c2O[C@H]1CN(C)Cc1ccc(-c2ccccc2)cc1",
    "experimental.result": "inactive"
  },
  {
    "compound": "COc1ccc(CN(C)C[C@H]2OCCCC[C@@H](C)Oc3ccc(NC(=O)NC4CCCCC4)cc3C(=O)N([C@@H](C)CO)C[C@H]2C)cc1",
    "experimental.result": "inactive"
  },
  {
    "compound": "C[C@@H]1CN([C@@H](C)CO)C(=O)c2cc(NC(=O)Nc3cccc4ccccc34)ccc2O[C@H]1CN(C)Cc1ccc2c(c1)OCO2",
    "experimental.result": "inactive"
  },
  {
    "compound": "C[C@H]1CN([C@@H](C)CO)C(=O)c2cccc(NC(=O)c3ccc(-c4nccs4)cc3)c2O[C@@H]1CN(C)CC1CCCCC1",
    "experimental.result": "inactive"
  },
  {
    "compound": "C[C@@H]1CN([C@@H](C)CO)C(=O)c2cc(NC(=O)Nc3cccc4ccccc34)ccc2O[C@H]1CN(C)Cc1ccccc1",
    "experimental.result": "inactive"
  },
  {
    "compound": "COc1cc(Nc2ncc3c(n2)-c2ccc(Cl)cc2C(c2c(F)cccc2OC)=NC3)ccc1C(=O)O",
    "experimental.result": "active"
  },
  {
    "compound": "O=c1ccc(=O)n(CCO)[nH]1",
    "experimental.result": "inactive"
  },
  {
    "compound": "Clc1ccc2c(c1)CCc1cccnc1C2=C1CCNCC1",
    "experimental.result": "active"
  },
  {
    "compound": "N[C@H]1CCCC[C@@H]1N1C(=O)CSC1=O",
    "experimental.result": "inactive"
  },
  {
    "compound": "C[C@@H]1CN([C@H](C)CO)C(=O)c2cccc(NC(=O)c3ccc(-c4nccs4)cc3)c2O[C@H]1CN(C)CC1CCCCC1",
    "experimental.result": "active"
  },
  {
    "compound": "O=C(C[C@H]1CC[C@@H]2[C@H](COC[C@@H](O)CN2CC2CCOCC2)O1)N1CCOCC1",
    "experimental.result": "inactive"
  },
  {
    "compound": "Cc1noc(C)c1NC(=O)Nc1cccc2c1O[C@@H](CN(C)Cc1ccc(-c3ccccc3)cc1)[C@@H](C)CN([C@H](C)CO)C2=O",
    "experimental.result": "inactive"
  },
  {
    "compound": "C[C@H]1CN([C@@H](C)CO)C(=O)c2cc(NC(=O)Cc3ccccc3)ccc2O[C@H]1CN(C)Cc1ccc(-c2ccccc2)cc1",
    "experimental.result": "inactive"
  },
  {
    "compound": "CC1(C)OC(=O)C2(C(=O)O1)[C@@H](c1ccc(-c3cccc(Br)c3)cc1)CC(=O)C[C@H]2c1ccccc1",
    "experimental.result": "inactive"
  },
  {
    "compound": "C[C@H]1CN([C@@H](C)CO)C(=O)c2cc(NC(=O)Nc3cccc4ccccc34)ccc2O[C@@H]1CN(C)Cc1ccccc1",
    "experimental.result": "inactive"
  },
  {
    "compound": "C[C@@H]1CN([C@H](C)CO)C(=O)c2cc(NC(=O)Nc3cccc4ccccc34)ccc2O[C@@H]1CN(C)Cc1ccccc1",
    "experimental.result": "active"
  },
  {
    "compound": "C[C@H]1CN([C@@H](C)CO)C(=O)c2cccc(NC(=O)c3ccc(-c4nccs4)cc3)c2O[C@@H]1CN(C)Cc1ccc(Cl)c(Cl)c1",
    "experimental.result": "inactive"
  },
  {
    "compound": "C[C@H]1CN([C@@H](C)CO)S(=O)(=O)c2ccc(C3=CCCC3)cc2O[C@@H]1CN(C)C(=O)Cc1ccncc1",
    "experimental.result": "inactive"
  },
  {
    "compound": "NC1CCCCC1N.O=C1[O][Pt][O]C1=O (stereo unspecified)",
    "experimental.result": "active"
  },
  {
    "compound": "O=C(Nc1ncc(SCCN2CCCC2)s1)[C@]1(c2ccc(S(=O)(=O)C3CC3)cc2)C[C@H]1C1CCCCC1",
    "experimental.result": "active"
  },
  {
    "compound": "C[C@@H]1CN([C@@H](C)CO)C(=O)Cc2cc(NS(=O)(=O)c3cn(C)cn3)ccc2O[C@H]1CN(C)C(=O)NC1CCCCC1",
    "experimental.result": "inactive"
  },
  {
    "compound": "c1ccc2c(c1)Cc1cccnc1-2",
    "experimental.result": "inactive"
  },
  {
    "compound": "C[C@@H]1CN([C@H](C)CO)C(=O)c2cccc(NC(=O)c3ccc(-c4nccs4)cc3)c2O[C@H]1CN(C)Cc1ccc(Cl)c(Cl)c1",
    "experimental.result": "inactive"
  },
  {
    "compound": "C[C@@H]1CN([C@H](C)CO)S(=O)(=O)c2ccc(-c3ccc(F)cc3)cc2O[C@H]1CN(C)S(C)(=O)=O",
    "experimental.result": "inactive"
  },
  {
    "compound": "Clc1ccc2ncccc2c1",
    "experimental.result": "inactive"
  },
  {
    "compound": "C[C@H]1CN([C@@H](C)CO)C(=O)c2cc(NC(=O)Cc3ccccc3)ccc2O[C@@H]1CN(C)Cc1ccc(-c2ccccc2)cc1",
    "experimental.result": "active"
  },
  {
    "compound": "C[C@H]1CCCCO[C@H](CN(C)C(=O)Nc2ccccc2)[C@@H](C)CN([C@@H](C)CO)C(=O)c2cc(NC(=O)C3CCCCC3)ccc2O1",
    "experimental.result": "inactive"
  },
  {
    "compound": "CCCCCCO[C@H](C)c1c(c/2[nH]c1/C=C/1\\N=C(/C=C/3\\NC4=C(CC(=O)C4=C3C)C3=N/C(=C2)[C@@H](C)[C@@H]3CCC(=O)O)C(=C1C)CC)C",
    "experimental.result": "active"
  },
  {
    "compound": "C[C@H](CO)N1C[C@H](C)[C@H](CN(C)Cc2ccc(C(=O)Nc3ccccc3N)cc2)Oc2c(NC(=O)c3ccc(-c4nccs4)cc3)cccc2C1=O",
    "experimental.result": "inactive"
  },
  {
    "compound": "C[C@H](CO)N1C[C@H](C)[C@@H](CN(C)Cc2ccc(-c3ccccc3)cc2)Oc2c(NC(=O)c3ccncc3)cccc2C1=O",
    "experimental.result": "active"
  },
  {
    "compound": "C[C@H]1CN([C@@H](C)CO)C(=O)c2cccc(NC(=O)c3ccc(-c4nccs4)cc3)c2O[C@@H]1CN(C)Cc1ccc(C(=O)Nc2ccccc2N)cc1",
    "experimental.result": "inactive"
  }
]

###

Tested on: HepG2
Experiment: cytotoxicity call (relative viability < 0.9)
Details: 10 µM
The whole screen tested about 39,000 compounds, of which about 3,300 (8.5%) were called active. The full list was thinned out, with actives kept by preference.
Labels: active, inactive

[
  {
    "entry.smiles": "C[C@@H]1CCCCO[C@@H](CN(C)C(=O)Cc2ccccc2)[C@H](C)CN([C@@H](C)CO)C(=O)c2cc(NC(=O)Nc3ccccc3)ccc2O1",
    "measured.on": "HepG2",
    "label.value": "inactive"
  },
  {
    "entry.smiles": "COc1ccc(S(=O)(=O)Nc2ccc3c(c2)C(=O)N([C@H](C)CO)C[C@H](C)[C@@H](CN(C)Cc2ccc(-c4ccccc4)cc2)O3)cc1",
    "measured.on": "HepG2",
    "label.value": "inactive"
  },
  {
    "entry.smiles": "COc1ccc(S(=O)(=O)Nc2ccc3c(c2)C(=O)N([C@H](C)CO)C[C@@H](C)[C@H](CN(C)Cc2ccc(-c4ccccc4)cc2)O3)cc1",
    "measured.on": "HepG2",
    "label.value": "inactive"
  },
  {
    "entry.smiles": "CN(C)CCc1cc(Br)c(OCCCNC(=O)/C=C/c2cc(Br)c(OCCN3CCCC3)c(Br)c2)c(Br)c1",
    "measured.on": "HepG2",
    "label.value": "active"
  },
  {
    "entry.smiles": "COc1ccc(S(=O)(=O)Nc2ccc3c(c2)C(=O)N([C@@H](C)CO)C[C@@H](C)[C@@H](CN(C)Cc2ccc(-c4ccccc4)cc2)O3)cc1",
    "measured.on": "HepG2",
    "label.value": "active"
  },
  {
    "entry.smiles": "CC(C)NC(=O)N(C)C[C@@H]1OCCCC[C@@H](C)Oc2ccc(NC(=O)C3CCCCC3)cc2C(=O)N([C@H](C)CO)C[C@H]1C",
    "measured.on": "HepG2",
    "label.value": "inactive"
  },
  {
    "entry.smiles": "CCS(=O)(=O)Nc1ccc2c(c1)C(=O)N(C)[C@@H]1CC[C@H](CC(=O)NCc3ccccc3F)O[C@@H]1CO2",
    "measured.on": "HepG2",
    "label.value": "inactive"
  },
  {
    "entry.smiles": "C[C@H]1CN([C@@H](C)CO)S(=O)(=O)c2ccc(-c3cncnc3)cc2O[C@H]1CN(C)C(=O)NC1CCCC1",
    "measured.on": "HepG2",
    "label.value": "inactive"
  },
  {
    "entry.smiles": "CO[C@H]1CN(C)C(=O)c2ccc(NS(C)(=O)=O)cc2OC[C@@H](C)N(C(=O)C2CCCCC2)C[C@@H]1C",
    "measured.on": "HepG2",
    "label.value": "inactive"
  },
  {
    "entry.smiles": "COc1ccc(S(=O)(=O)Nc2ccc3c(c2)C(=O)N([C@@H](C)CO)C[C@@H](C)[C@H](CN(C)Cc2ccc(-c4ccccc4)cc2)O3)cc1",
    "measured.on": "HepG2",
    "label.value": "inactive"
  },
  {
    "entry.smiles": "O=c1nc(NCCN2CCOCC2)cn[nH]1",
    "measured.on": "HepG2",
    "label.value": "inactive"
  },
  {
    "entry.smiles": "C[C@H](CO)N1C[C@H](C)[C@H](CN(C)C(=O)Nc2ccccc2)Oc2ccc(NC(=O)C3CC3)cc2CC1=O",
    "measured.on": "HepG2",
    "label.value": "inactive"
  },
  {
    "entry.smiles": "COc1ccc(S(=O)(=O)Nc2ccc3c(c2)C(=O)N([C@H](C)CO)C[C@@H](C)[C@@H](CN(C)Cc2ccc(-c4ccccc4)cc2)O3)cc1",
    "measured.on": "HepG2",
    "label.value": "active"
  },
  {
    "entry.smiles": "COc1ccc(NC(=O)N(C)C[C@@H]2OCc3cnnn3CCCC(=O)N([C@H](C)CO)C[C@H]2C)c(OC)c1",
    "measured.on": "HepG2",
    "label.value": "inactive"
  },
  {
    "entry.smiles": "COc1ccc(S(=O)(=O)Nc2ccc3c(c2)C(=O)N([C@@H](C)CO)C[C@H](C)[C@@H](CN(C)Cc2ccc(-c4ccccc4)cc2)O3)cc1",
    "measured.on": "HepG2",
    "label.value": "active"
  }
]
